System: Aβ1-40
methodDescription: Aβ1-40 content in conditioned medium of primary cortico-hippocampal neuron cultures from Tg2576 mice (ELISA; primary and secondary dose-response screening)
Format: cell-based, mouse
conditions: Mus musculus, Neuron, 24 h, primary screening, drug 100 μM, Tg2576 neuron cultures; table sorted by Aβ1-42; read-out: Ab1-40 (% of ctl)
Counter-ions that a name gives are not always drawn.
activity at 100 µM values, listed per item
measuredQuantity: activity at 100 µM (%)

1. CCCCNc1cc(C(=O)O)cc(S(N)(=O)=O)c1Oc1ccccc1 [Bumetanide] | 2.3
2. Cc1cccc(Nc2ccncc2S(=O)(=O)NC(=O)NC(C)C)c1 [Torsemide] | 107
3. COc1ccccc1N1CCN(CCCNc2cc(=O)n(C)c(=O)n2C)CC1 | 96.4
4. CCCCc1oc2ccccc2c1C(=O)c1cc(I)c(OCCN(CC)CC)c(I)c1 [Amiodarone Hydrochloride] | 14.9
5. COCCOC(=O)C1=C(C)NC(C)=C(C(=O)OC(C)C)C1c1cccc([N+](=O)[O-])c1 (centres unmarked) | 79.1

###

Tested on: Aβ1-42
methodDescription: Aβ1-42 content in conditioned medium of primary cortico-hippocampal neuron cultures from Tg2576 mice (ELISA; primary and secondary dose-response screening)
Type: cell-based, mouse
conditions: Primary Screening, drug 100 μM; table sorted by Aβ1-40
Structures can show the parent of a compound that is named as a salt.
measuredQuantity: Ab1-42 (% of ctl)

1. CC(C)NCC(O)COc1cccc2ccccc12.Cl (stereo not drawn) [Propranolol Hydrochloride (−)] | 32.8 % of ctl
2. NC(N)=O [Urea] | 104.9 % of ctl
3. COc1cc2nc(N(C)CCCNC(=O)C3CCCO3)nc(N)c2cc1OC (stereo not shown) [Alfluzosin] | 66.9 % of ctl
4. CC(C)NCC(O)COc1cccc2ccccc12.Cl (racemic) [Propranolol Hydrochloride (+/−)] | 93.4 % of ctl
5. CC(Cc1ccc(O)cc1)NCC(O)c1cc(O)cc(O)c1 (stereo not shown) [Fenoterol Hydrobromide] | 78.8 % of ctl
6. CC[C@@H](C)C(=O)O[C@H]1[C@H](O)[C@H]2[C@@H](CN3C[C@@H](C)CC[C@H]3[C@@]2(C)O)[C@@H]2C[C@]34O[C@]5(O)[C@@H](OC(=O)[C@](C)(O)[C@@H](C)O)CC[C@@]3(C)[C@@H]5[C@@H](OC(C)=O)[C@@H](OC(C)=O)[C@H]4[C@@]21O (stereo in doubt) [Protoveratrine B] | 93.3 % of ctl
7. NS(=O)(=O)c1cc2c(cc1C(F)(F)F)NC(Cc1ccccc1)NS2(=O)=O (stereo not shown) [Bendrofumethiazide] | 58.4 % of ctl

###

MTT (% of ctl) values, listed per item
Tested on: primary cortico-hippocampal neuron cultures
methodDescription: MTT in primary screening
conditions: primary screening; table sorted by Aβ1-42
Structures can show the parent of a compound that is named as a salt.
measuredQuantity: MTT (% of ctl)

1. Cc1cc(C(C)(C)C)cc(C)c1CC1=NCCN1 [Xylometazoline Hydrochloride] | 88.2 % of ctl
2. CN1C(C)(C)CCCC1(C)C [Pempidine Tartrate] | 91.3 % of ctl
3. COc1ccc2c(c1OC)C(=O)O[C@H]2[C@@H]1c2cc3c(cc2CCN1C)OCO3 [1S,9R-Beta-HYDRASTINE] | 101.1 % of ctl
4. CC(CCc1ccccc1)NCC(O)c1ccc(O)c(C(N)=O)c1 (centres unmarked) [Labetalol Hydrochloride] | 93.0 % of ctl
5. CCCc1nc(C(C)(C)O)c(C(=O)OCc2oc(=O)oc2C)n1Cc1ccc(-c2ccccc2-c2nnn[nH]2)cc1 [Olmesartan Medoxomil] | 90.7 % of ctl
6. COC(=O)[C@@H]1[C@H]2C[C@H]3c4[nH]c5ccccc5c4CCN3C[C@@H]2CC[C@@H]1O [Yohimbine Hydrochloride] | 82.7 % of ctl
7. CCOC(=O)C1=C[C@]2(CC)CCCN3CCc4c(n1c1ccccc41)[C@@H]32 [Vinpocetine] | 87.7 % of ctl
8. CC(C)(C)NCC(O)COc1cccc2[nH]c(=O)[nH]c12 (centres unmarked) | 97.1 % of ctl

###

Test system: Aβ1-42
methodDescription: Aβ1-42 content in conditioned medium of primary cortico-hippocampal neuron cultures from Tg2576 mice (ELISA; primary and secondary dose-response screening)
Format: cell-based, mouse
conditions: Mus musculus, Neuron, 24 h, primary screening, drug 100 μM, Tg2576 neuron cultures; table sorted by Aβ1-42; read-out: Ab1-42 (% of ctl)
Structures can show the parent of a compound that is named as a salt.
activity at 100 µM values, listed per item
measuredQuantity: activity at 100 µM

1) COc1ccc([C@@H]2Sc3ccccc3N(CCN(C)C)C(=O)[C@@H]2OC(C)=O)cc1 [Diltiazem Hydrochloride] | 98.9%
2) O=c1oc2c(O)c(O)cc3c(=O)oc4c(O)c(O)cc1c4c23 [Ellagic Acid] | 94%
3) NS(=O)(=O)c1cc2c(cc1C(F)(F)F)NCNS2(=O)=O [Hydroflumethiazide] | 90.2%
4) COCCOC(=O)C1=C(C)NC(C)=C(C(=O)OC(C)C)C1c1cccc([N+](=O)[O-])c1 (stereo not drawn) [Nimodipine] | 90.9%
5) COC(=O)[C@H]1[C@H]2C[C@@H]3c4[nH]c5cc(OC)ccc5c4CCN3C[C@H]2C[C@@H](OC(=O)c2cc(OC)c(OC)c(OC)c2)[C@@H]1OC [Reserpine] | 38.7%
6) CN1C[C@H](CNC(=O)OCc2ccccc2)C[C@@H]2c3cccc4c3c(cn4C)C[C@H]21 [Metergoline] | 2.3%
7) CC(CCc1ccc(O)cc1)NCCc1ccc(O)c(O)c1 (stereo not drawn) [Dobutamine Hydrochloride] | 103%
8) CC[C@H]1CN2CC[C@H]1C[C@@H]2[C@@H](O)c1ccnc2ccc(OC)cc12 [Hydroquinidine] | 121%
9) CCC(C)(C)C(=O)O[C@H]1C[C@@H](C)C=C2C=C[C@H](C)[C@H](CC[C@@H]3C[C@@H](O)CC(=O)O3)[C@H]21 [Simvastatin] | 122%
10) CCOC(=O)NNc1nncc2ccccc12 [Todralazine Hydrochloride] | 110%
11) CCOC(=O)[C@H](CCc1ccccc1)N[C@@H](C)C(=O)N1Cc2ccccc2C[C@H]1C(=O)O [Quinapril Hydrochloride] | 118%
12) CC(N)CCCC(C)(C)O (stereo not drawn) [Heptaminol Hydrochloride] | 105%

###

activity at 100 µM values, listed per item
Test system: Aβ1-42
methodDescription: Aβ1-42 content in conditioned medium of primary cortico-hippocampal neuron cultures from Tg2576 mice (ELISA; primary and secondary dose-response screening)
Type: cell-based, mouse
conditions: Mus musculus, Neuron, 24 h, primary screening, drug 100 μM, Tg2576 neuron cultures; table sorted by Aβ1-42; read-out: Ab1-42 (% of ctl)
Structures can show the parent of a compound that is named as a salt.
measuredQuantity: activity at 100 µM (%)

1. CC(CCc1ccccc1)NC(C)C(O)c1ccc(O)cc1 (stereo not drawn) [Nylidrin Hydrochloride] | 90.4
2. CCCCC1=NC2(CCCC2)C(=O)N1Cc1ccc(-c2ccccc2-c2nnn[nH]2)cc1 | 82.3
3. COc1cc([S+](C)[O-])ccc1-c1nc2ncccc2[nH]1 (stereo not drawn) | 93.2
4. NS(=O)(=O)c1cc2c(cc1Cl)NCNS2(=O)=O [Hydrochlorothiazide] | 116
5. CC(C)COCC(CN(Cc1ccccc1)c1ccccc1)N1CCCC1 (stereo not drawn) [Bepridil Hydrochloride] | 19.9
6. CCCC(=O)Nc1ccc(OCC(O)CNC(C)C)c(C(C)=O)c1 (stereo not drawn) [Acebutolol Hydrochloride] | 165

###

Tested on: Aβ1-40
methodDescription: Aβ1-40 content in conditioned medium of primary cortico-hippocampal neuron cultures from Tg2576 mice (ELISA; primary and secondary dose-response screening)
Format: cell-based, mouse
conditions: Mus musculus, Neuron, 24 h, primary screening, drug 100 μM, Tg2576 neuron cultures; table sorted by Aβ1-42; read-out: Ab1-40 (% of ctl)
Where a name gives a salt, the structure may show the parent alone.
activity at 100 µM values, listed per item
measuredQuantity: activity at 100 µM

1) CCCC(=O)Nc1ncnc2c1ncn2[C@@H]1O[C@@H]2COP(=O)(O)O[C@H]2[C@H]1OC(=O)CCC | 85.3%
2) CCOC(=O)[C@H](CCc1ccccc1)N[C@@H](C)C(=O)N1CCC[C@H]1C(=O)O [Enalapril Maleate] | 101%
3) CCOC(=O)C1=C(C)NC(C)=C(C(=O)OC)C1c1cccc([N+](=O)[O-])c1 (stereo not shown) | 33%
4) CC(C)NCC(O)COc1cccc2[nH]ccc12 (stereo not shown) | 99%
